Test system: YSK4;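 further: kd values determined as follow-up on hits from a single-replicate KINOMEscan panel screen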
Construct: gene MAP3K19
Readout Type: Kd (nM)
Express your answer in nM, writing the number without its unit.

Looking up `CCn1c(-c2nonc2N)nc2ccccc21` , I found its Kd recorded as 10

* * *

Hi there, I'd appreciate the recorded %Inh for every entry that follows.
System: PIK4CB;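 further: KINOMEscan kinase panel screen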
Construct: gene PI4KB
Details: concentration: 1 μM, replicates: in singlicate; n = 1
Please give a number only; it is taken to be in %.

Field %Inh (PIK4CB), entry COc1cc2nccc(Nc3ccc(OCc4ccc(NC(C)=O)cc4)cc3)c2cc1OC.Cl [GW440135] : 4

Observed %Inh on PIK4CB, entry `COc1ccc(-c2cc3c(C)nc(N)nc3n([C@H]3CC[C@H](OCCO)CC3)c2=O)cn1` , equals 96.1

Observed %Inh, PIK4CB, COc1cc2ncn(-c3cc(OCc4ccncc4Br)c(C(N)=O)s3)c2cc1OC [GW854278] : 23

Entry `CCc1ccc(-c2ccc3c(c2)-c2nn(C)cc2S(=O)(=O)N3C)cc1` under PIK4CB had %Inh of 0

Record for `Cc1ccc(-c2ccc3c(ccc4sc5c(c43)NC[C@@H](C)N=C5N(C)C)n2)cn1` under target or system PIK4CB: %Inh reported as 0

With PIK4CB as the test system, O=C(NCCNc1ccnc(Nc2ccc(F)cc2)n1)Nc1ccc2c(c1)OCO2 [GSK1379882] showed %Inh of 17

Cc1nnc(-c2ccc3ncn(-c4ccc(S(C)=O)cc4)c3c2)o1 (stereo not shown) tested on PIK4CB gave %Inh: 0

Log: PIK4CB, compound O=C1NC(=O)C(c2ccccc2)=C1Nc1cccc(O)c1 [SB-390534] , %Inh = 22

Entry CN(C)c1cc(-c2ccc3c(N)n[nH]c3c2)nc(N)n1 [GSK2219329] , PIK4CB data, %Inh value: 0

Lab note: compound `CCCNC(=O)Nc1ccc(Oc2ncnc3ccn(C)c23)cc1` tested on PIK4CB; recorded %Inh was 0

Tested on PIK4CB: `COc1ccc(-c2coc3ccc(-c4nnc(SCc5cccc(C#N)c5)o4)cc23)cc1` . Observed %Inh: 29

Response field %Inh (PIK4CB) for item COc1cc2ncn(-c3cc(OCc4ccc(S(C)(=O)=O)cc4)c(C(N)=O)s3)c2cc1OC [GW869979] : 18

The reported %Inh value, PIK4CB, for `COC(=O)c1c(-c2ccccc2)c2cc(Br)ccc2c(=O)n1Cc1ccc(S(C)(=O)=O)cc1` reads 5

Observed %Inh on PIK4CB, entry `CCC(=O)c1c(-c2ccccc2)c2cc(Cl)ccc2c(=O)n1Cc1cc(S(C)(=O)=O)n(CCC(C)(C)O)n1` , equals 0

Item O=C(Nc1n[nH]c2nc(-c3ccccc3)c(Br)cc12)C1CC1 [SB-708998] ; assay system PIK4CB; %Inh reported as 0

I looked up COc1ccc(Nc2nccc(N3CCC(NS(=O)(=O)c4ccc(NC(C)=O)cc4)C3)n2)cc1 (stereo not shown) [GSK1379729] and its %Inh for PIK4CB was 14

Form field %Inh for item `CCC(=O)c1c(-c2ccccc2)c2cc(Cl)ccc2c(=O)n1Cc1cc(C(=O)NC2CC2)n(C)n1` on PIK4CB: 0

Case Cc1cccc(-c2cc(-c3c[nH]nc3-c3ccccn3)ccn2)c1 [GW679395] , PIK4CB, %Inh recorded as 0

The compound COc1ccc(-n2cnc3c(N)ncnc32)cc1 [SKF-97236] on PIK4CB: %Inh was 23

Item Cc1c(Cn2c(C)nn3c(=O)cc(N4CCO[C@H](C)C4)nc23)cccc1C(F)(F)F [GSK2373690] ; assay system PIK4CB; %Inh reported as 0

Field %Inh (system: PIK4CB) for entry Nc1nccc2scc(-c3ccc4c(c3)CCN4C(=O)Cc3ccccc3)c12 [GSK2576924] = 20

Summary line: `Cc1ccc(Oc2ccc(Nc3ncnc4cc[nH]c34)cc2C)cn1` , PIK4CB, reported %Inh = 42

PIK4CB %Inh of O=C(Nc1n[nH]c2nc(-c3ccccc3)c(Cl)cc12)C1CC1 [SB-734909] is 2

The compound O=c1cc(N2CCOCC2)nc2n(Cc3ccc(F)c(Cl)c3)ccn12 [GSK2297099] on PIK4CB: %Inh was 20

// returns %Inh for COc1cc(Nc2nccc(N3CCC(NC(=O)C(C)c4ccc(Cl)cc4)C3)n2)cc(OC)c1OC (stereo not shown) [GSK1379757] with PIK4CB; value = 0

# lookup: Cc1ccccc1COc1cc(-n2cnc3cc(Cl)ccc32)sc1C(N)=O [GW813349] on PIK4CB, %Inh = 0

Record for `CCc1nc(-c2cccc(C)c2)c(-c2ccncc2)s1` under target or system PIK4CB: %Inh reported as 0

Log: PIK4CB, compound Nc1ncnc2c1ncn2-c1ccc(Cl)cc1 [AH2635] , %Inh = 0

The recorded %Inh with PIK4CB for FC(F)(F)c1ccc(-c2ncn(CCCN3CCOCC3)c2-c2ccncc2)cc1 [SB-217780] was 0

The value of %Inh recorded for Nc1n[nH]c2ncc(-c3ccccc3)cc12 [SB-517081] when tested on PIK4CB reads 0

%Inh value, target or system PIK4CB, for O=C(NCc1cccs1)c1cc(C(=O)c2c(Cl)cccc2Cl)c[nH]1 [GW823670] : 0

The recorded %Inh with PIK4CB for Nc1nc(-c2ccccc2F)c(-c2ccnc3ccccc23)s1 [GW560459] was 0

// returns %Inh for COc1cc(Nc2nccc(N3CCC(NC(=O)C4COc5ccccc5O4)C3)n2)cc(OC)c1OC (stereo not shown) [GSK1379761] with PIK4CB; value = 0

Given the compound CCS(=O)(=O)c1ccc(OC)c(Nc2ncc(-c3ccc(F)cc3)o2)c1.Cl [GW591947] and test system PIK4CB, the measured %Inh is 0

Entry COc1cccc(C2=C(Nc3cccc(C(=O)O)c3)C(=O)NC2=O)c1 [SB-390770] : %Inh on PIK4CB = 0

So the reported %Inh for COc1cc2ncn(-c3cc(OCc4ccncc4)c(C(N)=O)s3)c2cc1OC [GSK336313] , on PIK4CB, turned out to be 0

Reading of %Inh for `CCC(=O)c1c(-c2ccccc2)c2cc(Cl)ccc2c(=O)n1Cc1cc(S(C)(=O)=O)n(CC(F)F)n1` with PIK4CB: 0

Reference for the values: paper PMC5540273
